tested on: CCD-16; test: Cell proliferation assay (trypan blue); assay type: cell-based, human; conditions: Homo sapiens; read-out: IC50 of growth inhibition
Value type: pIC50
Keep in mind that pIC50 stands for -log10 of concentration in molar terms.

Return value of pIC50 for input CC1=C(CC(=O)O)c2cc(F)ccc2/C1=C\c1ccc([S+](C)[O-])cc1 (stereo not shown) [Sulindac] , no commentary.
3.03
